inhibition at 100 µM by entry:
target-or-system: hACAT-1 (Homo sapiens)
Construct: made in house; host or cells: Hi5 insect cells (baculovirus; virus produced in sf9), microsome fraction
Sequence (P35610 whole entry): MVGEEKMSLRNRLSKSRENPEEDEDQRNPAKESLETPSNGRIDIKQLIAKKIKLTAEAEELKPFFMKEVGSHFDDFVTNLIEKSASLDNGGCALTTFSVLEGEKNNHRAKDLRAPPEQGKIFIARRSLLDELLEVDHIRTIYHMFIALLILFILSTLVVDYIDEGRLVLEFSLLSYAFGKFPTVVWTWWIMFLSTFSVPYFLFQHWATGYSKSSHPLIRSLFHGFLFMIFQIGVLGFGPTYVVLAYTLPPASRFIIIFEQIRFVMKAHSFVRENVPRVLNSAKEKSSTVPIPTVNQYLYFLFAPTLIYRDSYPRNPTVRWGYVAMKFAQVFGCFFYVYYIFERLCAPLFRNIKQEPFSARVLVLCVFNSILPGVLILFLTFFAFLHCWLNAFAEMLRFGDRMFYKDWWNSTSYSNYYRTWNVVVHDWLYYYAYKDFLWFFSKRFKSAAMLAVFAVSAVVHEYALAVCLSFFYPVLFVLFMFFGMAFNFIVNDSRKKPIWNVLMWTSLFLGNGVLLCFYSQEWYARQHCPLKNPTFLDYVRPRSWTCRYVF
protocol-notes: hACAT inhibitory activity, microsome fraction of Hi5 cells, [1-14C] oleoyl-CoA substrate
Type: biochemical
run-parameters: read-out: Inhibitory activity at 100 μM (%) hACAT1

- compound: "COc1cc(O)cc2oc(=O)c3c4ccc(O)cc4oc3c12 [Formula 4, isotrifoliol]"
  target-or-system: "hACAT-1 (Homo sapiens)"
  inhibition at 100 µM / %: 14.9
- compound: "CC(C)=CCc1c(O)ccc2c1oc(=O)c1c3ccc(O)cc3oc21 [Formula 5, phaseol]"
  target-or-system: "hACAT-1 (Homo sapiens)"
  inhibition at 100 µM / %: 85.8
- compound: "C=C(C)c1cc2cc3c(cc2o1)OC[C@@]1(O)c2ccc(O)cc2O[C@@H]31 [Formula 2]"
  target-or-system: "hACAT-1 (Homo sapiens)"
  inhibition at 100 µM / %: 29.7
- compound: "COc1ccc2c(c1)O[C@H]1c3c(cc(O)c(CC=C(C)C)c3OC)OC[C@@]21O [Formula 3]"
  target-or-system: "hACAT-1 (Homo sapiens)"
  inhibition at 100 µM / %: 35.2

// provenance: patent US20160067209A1
